Listing of entries alongside the reported Z score.
Test system: Plasmodium falciparum
assay text: Primary screen in NF54 nanoGlo assay, in single point, at 2uM, 72h
Type: functional, Erythrocyte
recorded conditions: timepoint 72 hour
About 540 (0.36%) of roughly 150,000 compounds showed an effect of 50% or more. This excerpt belongs to a sample that is enriched for strong results.
assay endpoint: Z score

• O=C(N[C@@H]1C[C@H]1C1CCCCC1)N1CCC(N2CCCCC2)C1 (stereo partly specified) = 1.45
• CC(C)c1ccc(-c2nc(CN3CCCCC3)cc(CN3CCCCC3)c2O)cc1 = -15.06
• CCn1cc(-c2cccc(C(=O)N[C@@H](C)c3nc(C)sc3C)c2)cn1 = 0.85
• Cn1c(=O)c2c(-c3ccc(Br)cc3)n(-c3cccc4cccnc34)cc2n(C)c1=O = 0.72
• Cc1nc(CNc2ccc(S(=O)(=O)CCO)cc2)cs1 = 4.06
• O=C(Cn1cnc(-c2nc(-c3ccccc3)cs2)c1)Nc1ccc(F)cc1 = 0.99
• COc1ccc(CCNc2nc(-c3ccc(OC)cc3)c3c(N)n(-c4ccc(OC)cc4)nc3n2)cc1 = 2.28
• O=S(=O)(CCO)c1ccc(NCc2ccc(Cl)s2)cc1 = 0.74
• CCn1cncc1CNC1CCN(c2ccc3c(c2)CCC3)CC1 = 1.42
• COc1cc(C)c2[nH]c3c(c(=O)c2c1)CN(CC(=O)Nc1ccc(F)c(C)c1)CC3 = -1.61
• CCOC(=O)N1CCC(NC(=O)c2coc(NC(=O)Cc3c(C)noc3C)n2)CC1 = -2.53
• CCc1nnc2c(S(=O)(=O)N(Cc3cccc(Cl)c3)c3ccccc3)cccn12 = 2.2
• Cc1cc(CN(C)C(=O)[C@H]2CC(=O)N(c3ccccc3)C2)no1 = 0.62
• CC(C)c1nc(O)cc(CN2CCCCC2)n1 = 1.16
• CC(C)c1ccc2ncnc(N[C@H]3CCc4[nH]cnc4C3)c2c1 = -17.94
• CC1(C)C(NCC(O)COc2ccc(F)c(F)c2)[C@@H]2CCC[C@@H]21 (stereo partly specified) = -6.95
• Cc1nc(-c2ccccc2)cc(N2CCN(CCc3ccccc3)CC2)n1 = 0
• C[C@@H](NC(=O)NC1CCc2[nH]cnc2C1)c1ccc(F)cc1 (stereo partly specified) = 1.89
• CN(C)c1ccc([C@@H](CNC(=O)c2cccc(F)c2)c2c[nH]c3ccccc23)cc1 = -0.26
• C[n+]1cnc(-c2ccccc2)cc1-c1ccccc1 = -0.07
• COc1ccc(CCNC(=O)N2CC=C(C(F)(F)F)CC2)cc1F = -1.17

----------
Tested on: Plasmodium falciparum
assay text: Primary screen in NF54 nanoGlo assay, in single point, at 2uM, 72h; a lower Z score goes with more inhibition
Type: functional, Erythrocyte
recorded conditions: timepoint 72 hour
The whole screen tested about 150,000 compounds, of which about 540 (0.36%) showed an effect of 50% or more. The sample as a whole holds a higher share of strong results than the screen did.
assay endpoint: Z score

* c1ccc(-c2cc([C@@H]3NCCc4[nH]cnc43)on2)cc1 | 0.56
* Cc1nn(-c2nc3ccccc3[nH]2)c(O)c1CCC(C)C | -12.21
* COc1ccc(CC(=O)N[C@H]2CCOC2)cc1OC | 0.14
* CON1CCC(C(=O)NC2c3ccccc3CCC2C)CC1 (centres undefined) | -0.03
* Cc1ccc(C(N)=O)c(NCC2(N3CCN(C)CC3)CCCC2)n1 | 1.6
* Cc1onc(-c2ccccn2)c1C(=O)NC1CCCCC1 | -2.28
* CN1C(=O)c2ccccc2O[C@H]2CN(Cc3ccccc3)C[C@H]21 | 1.36
* CC(C)c1nc(C(=O)Nc2[nH]c(=O)ncc2F)cs1 | -15.46
* CC1CCN(Cn2c(=S)sc3ccccc32)CC1 | 0.63
* O=C(CC(c1ccccc1)c1ccccc1)N1CC(=O)N2CCc3ccccc3[C@@H]2C1 | -5.29
* CCc1ccc(CN2CCC[C@H](CNC(=O)c3ccc[nH]3)C2)nc1 | 0.44
* CCOC(=O)Nc1cc(C2CC2)nn1-c1nc2c(c(=O)[nH]1)CCCC2 | -0.55
* Cc1nc(C(=O)NC[C@@]23CCC[C@@H]2OCC3)c(-c2ccccc2)o1 | -0.01
* COc1ccc(Cl)cc1C(=O)N[C@H]1CCc2nn(C)c(=O)cc2C1 | 3.11
* Cc1cn2nc(C(=O)NCCc3ccc(S(N)(=O)=O)cc3)cc2c(=O)[nH]1 | 3.38
* O=C(CN1CCCCC1)Nc1cc(C2CC2)nn1-c1ccccc1 | -0.24
* Cc1cnc(C(=O)NC2CCCCCCC2)cn1 | -2.33
* Cc1nc(C(=O)Nc2[nH]c(=O)ncc2F)c(-c2ccccc2)o1 | -7.61
* Cc1cc(C)nc(-n2nc(C)c(CCc3ccccc3)c2O)n1 | -3.67
* COC(=O)c1ccc(C)c(NC(=O)c2cn(C)cn2)c1O | 0.17
* O=C(N[C@H]1CCc2[nH]c3ccc(Br)cc3c2C1)c1ccc(Cl)c(Cl)c1 | 1.26
* O=C(O)[C@H]1CCCN(C2CCN(Cc3ccccc3)CC2)C1 | 1.5
* CCc1ncc(NC(=O)c2coc(-c3ccccc3)n2)cn1 | 2.66
* CCc1cc(NC(=O)C2CN(C(=O)C3CCCCC3)C2)n(C)n1 | 2.45
